System: Musca domestica Rsp
Test: Topical LD50 to adult female RSP houseflies
Settings: Musca domestica, topical, read-out: Topical LD50, Musca domestica Rsp, Alone
Experimental: The compounds of the present invention were tested for insecticidal activity by standard methods, and compared with the insecticidal activities of DDT and symmetrical analogs of DDT, such methoxychlor. […] Since piperonyl butoxide serves to block the action of MFO, the synergized LD50 values express the intrinsic toxicity of the compounds. With the detoxifying action of MFO enzymes blocked, the intrinsic toxicity of the compounds can thus be measured.
endpoint.label: LD50 (mg/kg)
State the answer as a number, implicitly in mg/kg.

Cc1ccc(NC(c2ccc(Cl)cc2)C(Cl)(Cl)Cl)cc1 (stereo not drawn) :: 125
CCOc1ccc(C(Nc2ccc(C)cc2)C(Cl)(Cl)Cl)cc1 (stereo not drawn) :: 14

We now examine a further molecule.
Measured LD50, COc1ccc(NC(c2ccc(OC)cc2)C(Cl)(Cl)Cl)cc1 (stereo not drawn) : 500
